The reported measurements were obtained from ChEMBL document CHEMBL1201862.

Test system: A498
METHOD DESCRIPTION: NCI tumour cell line growth inhibition, 48 h
Activity calls are given as the source filed them. No stated cut-off is given here; in the data, active = GI50 up to about 1.1 µM and inactive = higher.
Overview of recorded GI50 for various compounds

Please give the documented GI50 of c1ccc(-c2nnc(CCCCCCCCc3nnc(-c4ccccc4)o3)o2)cc1 16.1 µM (inactive)

Please give the documented GI50 of O=c1oc2cccnc2n1CCN1CCN(c2ccc(Oc3ccccc3)cc2)CC1 40.9 µM (inactive)

Please give the documented GI50 of Nc1ccc(/N=N\c2ccc(-c3ccc(O)cc3)cc2)c2ccc(S(=O)(=O)O)cc12 > 100 µM (inactive)

Please give the documented GI50 of COc1ccc2c(c1)c1c(n2CCN2CCCCC2)-c2cccc(OC)c2CC1 20.1 µM (inactive)

Please give the documented GI50 of COc1ccc(/C(Cl)=C(\C=O)c2ccc([N+](=O)[O-])cc2)cc1OC 20.5 µM (inactive)

###

Test system: A498
METHOD DESCRIPTION: NCI tumour cell line growth inhibition, 48 h
Calls of active or inactive are those of the source. Cut-off read from the data, not from the text of the source: active = GI50 up to about 1.1 µM and inactive = higher.
Overview of recorded GI50 for various molecules

Recorded GI50, per entry:
COC(=O)C(C#CCCCCC#CC(NC(=O)OCc1ccccc1)(C(=O)OC)C(F)(F)F)(NC(=O)OCc1ccccc1)C(F)(F)F (stereo unspecified)    > 100 µM (inactive)
Cc1cc2ncc3c(=O)n(NS(=O)(=O)c4ccc(N)cc4)ccc3n2n1    70.8 µM (inactive)
Nc1ncnc2c1nnn2C1OC(CO)C(O)C1O (stereo unspecified)    3.94 µM (inactive)

Please give the documented GI50 of Clc1ccc(C2SCc3nc4ccccc4n32)cc1 (stereo unspecified) 20.9 µM (inactive)

Please give the documented GI50 of CC(C)CCn1c(=O)c2c(=O)[nH][nH]c2c2ccccc21 > 100 µM (inactive)

Please give the documented GI50 of COc1cc2c(cc1OC)C(=O)/C(=C/c1ccccc1)CC2 26.1 µM (inactive)

###

Test system: KM12
METHOD DESCRIPTION: NCI tumour cell line growth inhibition, 48 h
The source made the active and inactive calls. Cut-off read from the data, not from the text of the source: active = GI50 up to about 1.1 µM and inactive = higher.
READOUT LABEL: GI50

Please give the documented GI50 of COc1cc2c(c3c1C=CCO3)C(=O)c1ccccc1C2=O 30.3 µM (inactive)

Please give the documented GI50 of CC(=O)NC1C(OCc2ccccc2)OC(CO)C(O)C1OCC(=O)N1CCCC1C(=O)NC(CCC(=O)NCCCCCNc1c2ccccc2nc2cccc([N+](=O)[O-])c12)C(N)=O (stereo unspecified) 0.02 µM (active)

Please give the documented GI50 of Cn1c(=O)oc2cc(C(O)CN3CCN(Cc4ccc5c(c4)OCO5)CC3)ccc21 (stereo unspecified) > 100 µM (inactive)

###

Tested on: U-251
METHOD DESCRIPTION: NCI tumour cell line growth inhibition, 48 h
Calls of active or inactive are those of the source. Cut-off read from the data, not from the text of the source: active = GI50 up to about 1.1 µM and inactive = higher.
Mark one answer only. Choices: active, inactive

Reference set (8 entries):
C=C(c1ccc2[nH]c(NC(=O)OC)nc2c1)c1cccs1    active
Cc1nc2c(=O)[nH]c(=O)nc-2n(CCO)c1C    inactive
C[C@@H](c1ccccc1)N1C[C@@H](c2ccc3c(c2)OCO3)[C@@H]2C(=O)CCC[C@@H]21    inactive
CC(C)(C)[Si](C)(C)OCC1OC(n2ccc(=O)[nH]c2=O)C(O[Si](C)(C)C(C)(C)C)[C@]12O[C@@H]2CO (stereo partly specified)    inactive
CN(C)/C=N/n1c2ccccc2c2ccccc21    inactive
COC(=O)[C@@]12CCCC(=O)[C@@H]1[C@H]1CCC[C@H]12    inactive
NC1CC(=O)c2ccccc21 (stereo unspecified)    inactive
CS(=O)(=O)Nc1ccc(N2Cc3c[nH]c4ccc5nccc2c5c34)cc1    inactive

Which result was noted for this compound in the test: Nc1cccc2cc(Cl)cnc12 inactive

Which result was noted for this compound in the test: CSC1=C(SC)C(=O)c2cn(C)c(=O)cc2C1=O inactive

Which result was noted for this compound in the test: CCCCCCC(CCl)c1sc(-c2csc(CCNC(=O)OC(C)(C)C)n2)nc1C(=O)OC (stereo unspecified) inactive
